// values below are IC50; system is p110γ (Homo sapiens, UniProt P48736)
Sequence (P48736 whole entry): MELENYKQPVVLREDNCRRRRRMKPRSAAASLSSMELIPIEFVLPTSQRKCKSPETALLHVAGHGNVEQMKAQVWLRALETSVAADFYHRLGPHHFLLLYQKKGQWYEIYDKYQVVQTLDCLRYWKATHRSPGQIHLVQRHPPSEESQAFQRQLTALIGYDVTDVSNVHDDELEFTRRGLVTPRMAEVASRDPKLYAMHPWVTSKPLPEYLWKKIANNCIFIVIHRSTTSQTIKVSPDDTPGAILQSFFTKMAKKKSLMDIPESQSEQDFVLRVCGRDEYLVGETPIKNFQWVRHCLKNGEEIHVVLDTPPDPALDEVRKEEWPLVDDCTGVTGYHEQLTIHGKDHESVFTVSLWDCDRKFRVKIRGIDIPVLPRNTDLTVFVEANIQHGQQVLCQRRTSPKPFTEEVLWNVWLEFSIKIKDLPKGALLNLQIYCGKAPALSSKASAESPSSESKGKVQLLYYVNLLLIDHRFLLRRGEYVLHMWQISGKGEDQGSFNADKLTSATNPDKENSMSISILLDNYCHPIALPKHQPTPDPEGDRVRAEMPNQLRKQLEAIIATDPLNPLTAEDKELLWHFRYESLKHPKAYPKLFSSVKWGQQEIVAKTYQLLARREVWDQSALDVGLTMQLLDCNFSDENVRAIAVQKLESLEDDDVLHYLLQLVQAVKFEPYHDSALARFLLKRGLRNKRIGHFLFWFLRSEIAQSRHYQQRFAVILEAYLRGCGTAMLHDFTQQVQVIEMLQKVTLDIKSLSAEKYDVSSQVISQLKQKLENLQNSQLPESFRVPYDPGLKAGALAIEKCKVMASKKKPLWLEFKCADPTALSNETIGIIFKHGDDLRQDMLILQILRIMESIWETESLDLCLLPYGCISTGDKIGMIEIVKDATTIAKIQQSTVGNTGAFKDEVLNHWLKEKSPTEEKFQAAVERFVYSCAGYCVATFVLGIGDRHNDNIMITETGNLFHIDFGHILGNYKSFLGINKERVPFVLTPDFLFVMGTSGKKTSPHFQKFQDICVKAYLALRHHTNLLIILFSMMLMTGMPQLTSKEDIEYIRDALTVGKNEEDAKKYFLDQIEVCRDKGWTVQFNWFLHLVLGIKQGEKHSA
quantity kind: IC50 (nM)

[[record]]
smiles = "CNC(=O)c1c[nH]c2ncnc(N3CCC[C@H]3c3nn4ccc(Cl)c4c(=O)n3-c3ccccc3)c12"
target_or_system = "p110γ (Homo sapiens, UniProt P48736)"
value_units = "nM"
numeric_result = 71

[[record]]
smiles = "Nc1nc2c(c(N3CCC[C@H]3c3nn4ccc(Cl)c4c(=O)n3-c3ccccc3)n1)C(=O)CCN2"
target_or_system = "p110γ (Homo sapiens, UniProt P48736)"
value_units = "nM"
numeric_result = 19

[[record]]
smiles = "COc1ncc(-c2c[nH]c3ncnc(N4CC[C@H]4c4nn5ccc(Cl)c5c(=O)n4-c4ccccc4)c23)cn1"
target_or_system = "p110γ (Homo sapiens, UniProt P48736)"
value_units = "nM"
numeric_result = 5


---

Overview of reported PI3Kγ IH % @ 1 uM across a group of compounds:
target or system: p110γ (Homo sapiens)
assay remarks: Transcreener KINASE Assay, kinase inhibition of p110γ
Format: biochemical
study conditions: 1 uM test compound
quantity kind: PI3Kγ IH % @ 1 uM

[[record]]
smiles = "CC(=O)c1cnc(N)nc1N1C[C@H](C)[C@H]1c1nn2ccc(Cl)c2c(=O)n1-c1cc(F)cc(F)c1"
result = ">100%"

[[record]]
smiles = "Nc1ncc([N+](=O)[O-])c(N2CCC[C@H]2c2nn3ccc(Cl)c3c(=O)n2-c2ccccc2)n1"
result = ">100%"

[[record]]
smiles = "O=c1c2c(Cl)ccn2nc([C@@H]2CSCN2c2ncnc3[nH]cnc23)n1-c1ccccc1"
result = ">100%"


---

Overview of reported IC50 across a group of molecules:
target or system: PI3Kγ (Mus musculus, UniProt Q9JHG7)
Sequence (Q9JHG7 whole entry): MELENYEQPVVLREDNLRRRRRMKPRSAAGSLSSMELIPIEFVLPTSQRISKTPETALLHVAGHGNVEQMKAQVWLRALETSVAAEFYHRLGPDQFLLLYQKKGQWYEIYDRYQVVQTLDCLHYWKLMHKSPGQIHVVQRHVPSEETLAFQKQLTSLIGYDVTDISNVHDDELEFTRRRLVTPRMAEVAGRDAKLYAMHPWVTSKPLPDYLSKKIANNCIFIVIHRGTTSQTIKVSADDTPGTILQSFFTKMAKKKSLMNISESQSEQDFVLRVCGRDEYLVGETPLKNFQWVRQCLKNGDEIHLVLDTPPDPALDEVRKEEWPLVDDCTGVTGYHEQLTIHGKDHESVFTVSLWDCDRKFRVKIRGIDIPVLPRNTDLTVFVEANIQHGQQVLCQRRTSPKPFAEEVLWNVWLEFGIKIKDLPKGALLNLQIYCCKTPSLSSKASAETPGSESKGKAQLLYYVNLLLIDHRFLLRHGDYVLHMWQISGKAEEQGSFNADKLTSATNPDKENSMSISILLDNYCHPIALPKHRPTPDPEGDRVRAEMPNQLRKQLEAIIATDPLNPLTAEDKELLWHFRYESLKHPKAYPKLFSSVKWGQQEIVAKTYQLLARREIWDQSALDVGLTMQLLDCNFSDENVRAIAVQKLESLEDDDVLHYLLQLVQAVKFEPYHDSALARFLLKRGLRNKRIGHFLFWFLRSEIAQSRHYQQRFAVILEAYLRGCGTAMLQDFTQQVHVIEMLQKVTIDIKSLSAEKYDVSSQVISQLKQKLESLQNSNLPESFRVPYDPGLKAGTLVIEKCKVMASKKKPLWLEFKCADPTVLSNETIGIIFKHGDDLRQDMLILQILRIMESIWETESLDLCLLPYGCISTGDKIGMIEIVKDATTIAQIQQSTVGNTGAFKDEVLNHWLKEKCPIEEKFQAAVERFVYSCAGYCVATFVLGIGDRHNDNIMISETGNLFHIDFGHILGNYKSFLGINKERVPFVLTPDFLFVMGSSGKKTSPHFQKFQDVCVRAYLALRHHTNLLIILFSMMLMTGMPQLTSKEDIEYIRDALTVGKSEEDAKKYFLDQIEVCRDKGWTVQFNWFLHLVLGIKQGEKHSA
assay remarks: Acumen Assay - Raw264.7 p-AKT Assay (C5a stimulated)
study conditions: Raw264.7 macrophage cells, compound 30 min, stimulated with 10 nM C5a for 5 min, p-AKT (Ser473) readout; read-out: PI3Kγ cell-C5a Raw264.7 IC50
quantity kind: IC50 (nM)

[[record]]
molecule = "C[C@H]1CN(c2nc(N)nc(N)c2C#N)[C@@H]1c1nn2ccc(Cl)c2c(=O)n1-c1ccc(F)cc1 [Compound 480]"
target_or_system = "PI3Kγ (Mus musculus, UniProt Q9JHG7)"
numeric_result = 11

[[record]]
molecule = "CC(=O)c1cnc(N)nc1N1CC[C@H]1c1nn2ccc(C(F)(F)F)c2c(=O)n1-c1ccccc1 [Compound 486]"
target_or_system = "PI3Kγ (Mus musculus, UniProt Q9JHG7)"
numeric_result = 51

[[record]]
molecule = "CC(=O)c1cnc(N)nc1N1C[C@H](C)[C@H]1c1nn2ccc(Cl)c2c(=O)n1-c1cccc(F)c1 [Compound 467]"
target_or_system = "PI3Kγ (Mus musculus, UniProt Q9JHG7)"
numeric_result = 39

[[record]]
molecule = "C[C@H]1CN(c2nc(N)ncc2C#N)C1c1nn2ccc(Cl)c2c(=O)n1-c1ccccc1 (stereo partly drawn) [Compound 431]"
target_or_system = "PI3Kγ (Mus musculus, UniProt Q9JHG7)"
numeric_result = 85

[[record]]
molecule = "Cc1cc(Cl)c2c(=O)n(-c3ccccc3)c([C@@H]3CCN3c3ncnc4[nH]cnc34)nn12 [Compound 496]"
target_or_system = "PI3Kγ (Mus musculus, UniProt Q9JHG7)"
numeric_result = 2

[[record]]
molecule = "Cc1nc(N)nc(N2C[C@H](C)C2c2nn3ccc(F)c3c(=O)n2-c2ccccc2)c1C#N (stereo partly drawn) [Compound 436]"
target_or_system = "PI3Kγ (Mus musculus, UniProt Q9JHG7)"
numeric_result = 37

[[record]]
molecule = "CC1(C)CN(c2nc(N)ncc2C#N)C1c1nn2ccc(Cl)c2c(=O)n1-c1ccccc1 (stereo not drawn) [Compound 471]"
target_or_system = "PI3Kγ (Mus musculus, UniProt Q9JHG7)"
numeric_result = 96

[[record]]
molecule = "Cc1nc(N)nc(N2CC[C@H]2c2nn3ccc(C(F)(F)F)c3c(=O)n2-c2ccccc2)c1C#N [Compound 487]"
target_or_system = "PI3Kγ (Mus musculus, UniProt Q9JHG7)"
numeric_result = 46

[[record]]
molecule = "CC(=O)c1c(N)nc(N)nc1N1C[C@H](C)C1c1nn2ccc(Cl)c2c(=O)n1-c1cccc(F)c1 (stereo partly drawn) [Compound 493]"
target_or_system = "PI3Kγ (Mus musculus, UniProt Q9JHG7)"
numeric_result = 8

